Tested on: PDPK1;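 further: KINOMEscan kinase panel screen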
conditionSummary: concentration: 1 μM, replicates: in singlicate; n = 1
Recorded measurements of %Inh, one per entry
measuredAttribute: %Inh (%)

INSERT INTO assay_data (compound, assayresult) VALUES
  ('Cc1ccc(C)c(NC(=O)NC2CCN(c3ccnc(Nc4ccc(F)cc4)n3)C2)c1 (centres unmarked)', 0),
  ('C[C@@H]1CC[C@@H](C(=O)Nc2ccccc2)CN1c1cc(-c2ccc3c(N)n[nH]c3c2)nc(N)n1', 64),
  ('Cc1ccc(S(=O)(=O)Nc2ccc(Nc3nccc(Nc4cccc5[nH]ncc45)n3)cc2)cc1', 0),
  ('CCCCc1nn2ncccc2c1-c1ccnc(Nc2ccc(N3CCN(C)CC3)cc2)n1', 0),
  ('Cl.NC(=O)c1cccc(Nc2nccc(Nc3ccc(Oc4c(Cl)cccc4Cl)c(Cl)c3)n2)c1', 0),
  ('COc1cccc(NC(=O)NC2CCN(c3ccnc(Nc4cc(OC)c(OC)c(OC)c4)n3)C2)c1 (centres unmarked)', 0),
  ('CC(C)(C)c1ccc2nccc(Nc3cccc(O)c3)c2c1', 96.3),
  ('O=c1[nH]cc(-c2ccc(N3CCOCC3)cc2)c2sc(-c3cn[nH]c3)cc12', 0);
